The origin of these recorded values is patent US4096259A.

Recorded ED50 values for a group of molecules are listed next.
test system: exploration response in mice; assay: Psychostimulating activity: increase of exploration response in mice (actimetry); assay type: in vivo; conditions: Mus musculus, po, per os, dose which increases exploration response by 50%

CCOC(=O)CCN1CCN(CCOC(c2ccccc2)c2ccc(C)cc2)CC1 (centres unmarked) [Derivative 19]	> 400 mg/kg
CCOC(=O)CCN1CCN(CCOC(c2ccc(F)cc2)c2ccc(F)cc2)CC1.Cl.Cl [Derivative 21]	30 mg/kg
O=C(CN1CCN(CCOC(c2ccccc2)c2ccccc2)CC1)N1CCOCC1 [Derivative 31]	100 mg/kg
O=C(O)CCN1CCN(CCOC(c2ccc(F)cc2)c2ccc(F)cc2)CC1 [Derivative 11]	30 mg/kg
CCCCOC(=O)CCN1CCN(CCOC(c2ccc(F)cc2)c2ccc(F)cc2)CC1 [Derivative 25]	40 mg/kg
O=C(O)CCN1CCN(CCOC(c2ccccc2)c2ccc(Cl)cc2)CC1 (centres unmarked) [Derivative 8]	30 mg/kg
COc1ccccc1N1CCN(C(=O)CN2CCN(CCOC(c3ccccc3)c3ccccc3)CC2)CC1 [Derivative 32]	100 mg/kg

Look up ED50: CCOC(=O)CCN1CCN(CCOC(c2ccccc2)c2ccccc2)CC1 [Derivative 16]
100 mg/kg
